Task for the reader: assign each of the following compounds its reported PRE Application IPOHE, percentage damage on five-point scale.
- System: Ipomoea hederacea (IPOHE)
- METHOD DESCRIPTION: Pre-emergence herbicidal glasshouse test (Table B1)
- Format: in vivo
- TEST PARAMETERS: applied at 125 g/ha, evaluated after 13 days

Field: example entries. Status: answers known.
**Query** Indicate the recorded PRE Application IPOHE, percentage damage on five-point scale value for this compound: "CCn1nnnc1NC(=O)c1ccc(OC(F)(F)F)c(NC(=O)CC(F)(F)F)c1Cl"
**Result** 3 (3=40-59%)

**Query** Indicate the recorded PRE Application IPOHE, percentage damage on five-point scale value for this compound: "CCCOCC(=O)Nc1c(OC(F)(F)F)ccc(C(=O)Nc2nnnn2C)c1Cl"
**Result** 4 (4=60-79%)

**Query** Indicate the recorded PRE Application IPOHE, percentage damage on five-point scale value for this compound: CC(F)C(=O)Nc1c(OC(F)F)ccc(C(=O)Nc2nnnn2C)c1Cl (stereo not drawn)
**Result** 4 (4=60-79%)

**Query** Indicate the recorded PRE Application IPOHE, percentage damage on five-point scale value for this compound: "Cc1cc(C(=O)Nc2c(OC(F)F)ccc(C(=O)Nc3nnnn3C)c2Cl)no1"
**Result** 1 (1=0-19%)

**Query** Indicate the recorded PRE Application IPOHE, percentage damage on five-point scale value for this compound: CCC(C)C(=O)Nc1c(OC(F)(F)F)ccc(C(=O)Nc2nnnn2CC)c1Cl (stereo not drawn)
**Result** 5 (5=80-100%)

Below: the item to evaluate.
**Query** Indicate the recorded PRE Application IPOHE, percentage damage on five-point scale value for this compound: "CCn1nnnc1NC(=O)c1ccc(OC(F)(F)F)c(NC(=O)C(C)C)c1Cl"
**Result** 2 (2=20-39%)
